Data provenance is ChEMBL document CHEMBL1141081.

- method_notes: Half-life after iv administration at a dose 2.5 mg/kg
- Type: ADME, organism-based, Canis lupus familiaris
- Parameters: dose 2.5 mg/kg, route intravenous
- measurement_parameters: dog, in vivo
result_type: half-life (h)
Give bare numbers, in h.

Param item = O=c1cc(NC2CCN(Cc3ccc4c(c3)OCO4)CC2)c2cc(Cl)ccc2o1 ; retrieve measured half-life.
3.9

* * *

- method_notes: Plasma concentration at the end of the first infusion in dog cardiovascular assay; value is in between 1.36-1.43
- Format: ADME, Canis lupus familiaris
- measurement_parameters: iv
result_type: Activity
Answer by giving the amount and then stating its unit.

Param item = COc1ccc2oc(O)c/c(=N\C3CCN(Cc4ccc5c(c4)OCO5)CC3)c2c1 ; retrieve measured Activity.
2.84 µg/mL

* * *

- Test system: Mus musculus
- method_notes: Drug concentration in brain 1 hr after final dose of 10 mg/kg, administered orally
- measurement_parameters: po
result_type: concentration at 1 h (ng/g)
Answers are plain numbers, in ng/g.

Param item = O=c1cc(NC2CCN(Cc3ccc4c(c3)OCO4)CC2)c2cc(Cl)ccc2o1 ; retrieve measured concentration at 1 h.
6460

* * *

Hi there, I'd appreciate the recorded concentration at 12 h for every entry that follows.
- method_notes: Concentration in diet-induced obese mouse brain 12 h after 10 mg/kg oral administration
- Format: ADME, organism-based
- Parameters: dose 10 mg/kg, route oral
- measurement_parameters: read-out: C12h
Numbers only, in ng/g.

{"smiles_record": "O=c1cc(NC2CCN(Cc3ccc4[nH]ccc4c3)CC2)c2cc(Cl)ccc2o1", "concentration at 12 h [ng/g]": 18}

Let us examine a further case.
Param item = O=c1cc(NC2CCN(Cc3ccc4c(c3)OCO4)CC2)c2cc(Cl)ccc2o1 ; retrieve measured concentration at 12 h.
175

* * *

- method_notes: Drug concentration in plasma 1 hr after final dose of 10 mg/kg administered orally
- Type: ADME, organism-based
- Set-up: dose 10 mg/kg, route oral
- measurement_parameters: mouse, po, read-out: Activity
result_type: concentration at 1 h

Param item = O=c1cc(NC2CCN(Cc3ccc4c(c3)OCO4)CC2)c2cc(Cl)ccc2o1 ; retrieve measured concentration at 1 h.
2000 ng/mL

* * *

- method_notes: Plasma clearance after iv administration at a dose 2.5 mg/kg
- Type: ADME, organism-based, Canis lupus familiaris
- Parameters: dose 2.5 mg/kg, route intravenous
- measurement_parameters: dog, read-out: Clp (converted)
result_type: clearance (mL/min/kg)
One number for each entry, in mL/min/kg.

Param item = O=c1cc(NC2CCN(Cc3ccc4c(c3)OCO4)CC2)c2cc(Cl)ccc2o1 ; retrieve measured clearance.
15.8

* * *

- method_notes: Plasma area under curve after oafter iv administration at a dose 2.5 mg/kg
- Type: ADME, organism-based, Canis lupus familiaris
- Design: dose 2.5 mg/kg, route intravenous
- measurement_parameters: dog, in vivo
result_type: AUC (ng·h/mL)
Answers are plain numbers, in ng·h/mL.

Param item = O=c1cc(NC2CCN(Cc3ccc4c(c3)OCO4)CC2)c2cc(Cl)ccc2o1 ; retrieve measured AUC.
2660

* * *

- method_notes: Plasma concentration after intravenous infusion at a dose of 26 mg/kg/30 min
- Assay type: ADME, organism-based, Canis lupus familiaris
- Design: route intravenous
- measurement_parameters: dog, read-out: Activity
result_type: concentration at 0.5 h (ng/mL)
Give bare numbers, in ng/mL.

Param item = O=c1cc(NC2CCN(Cc3ccc4c(c3)OCO4)CC2)c2cc(Cl)ccc2o1 ; retrieve measured concentration at 0.5 h.
11800

* * *

- assayed_target: Melanin-concentrating hormone receptor 1 (Homo sapiens)
- method_notes: Inhibitory concentration aganist melanin concentrating hormone receptor 1 expressed in IMR-32 cells using [125I]MCH
- Type: cell-based
Hi there, I'd appreciate the recorded pIC50 for every entry that follows.
Give bare numbers, as −log10 of the molar value.

Hey, can you go through the list below and give me pIC50 for every item?
1. O=c1cc(NC2CCN(Cc3ccc4ncoc4c3)CC2)c2cc(Cl)ccc2o1
2. O=c1cc(NC2CCN(Cc3ccc4c(c3)OC(F)(F)O4)CC2)c2cc(Cl)ccc2o1
3. O=c1cc(NC2CCN(C/C=C/c3ccccc3)CC2)c2cc(Cl)ccc2o1
4. COc1ccc2oc(O)c/c(=N\C3CCN(C/C=C/c4ccccc4)CC3)c2c1
5. O=c1cc(NC2CCN(C/C=C/c3ccccc3)CC2)c2ccccc2o1

7.12
7.72
8.05
8.40
6.72

Hey, can you go through the list below and give me pIC50 for every item?
1. O=c1cc(NC2CCN(Cc3ccc4ccccc4c3)CC2)c2cc(Cl)ccc2o1
2. O=c1cc(NC2CCN(Cc3ccc4ocnc4c3)CC2)c2cc(Cl)ccc2o1
3. O=c1cc(NC2CCN(Cc3ccc4[nH]ccc4c3)CC2)c2cc(Cl)ccc2o1
4. O=c1cc(NC2CCN(Cc3ccc4c(c3)OCO4)CC2)c2cc(Cl)ccc2o1
5. Cn1ccc2ccc(CN3CCC(/N=c4\cc(O)oc5ccc(Cl)cc45)CC3)cc21

1: 7.68; 2: 8.52; 3: 8.15; 4: 8.70; 5: 7.22

Hey, can you go through the list below and give me pIC50 for every item?
1. O=c1cc(NC2CCN(Cc3ccc4cc[nH]c4c3)CC2)c2cc(Cl)ccc2o1
2. O=c1cc(NC2CCN(Cc3ccc4sccc4c3)CC2)c2cc(Cl)ccc2o1
3. O=c1cc(NC2CCN(Cc3ccc4c(c3)CCO4)CC2)c2cc(Cl)ccc2o1

[7.62, 8.22, 7.57]

* * *

- method_notes: Drug concentration in brain 1 hr after final dose of 10 mg/kg, administered orally
- Type: ADME, organism-based
- Design: dose 10 mg/kg, route oral
- measurement_parameters: mouse, po, read-out: Activity
result_type: concentration at 1 h (ng/g)
Answers are plain numbers, in ng/g.

Param item = O=c1cc(NC2CCN(Cc3ccc4c(c3)OCO4)CC2)c2cc(Cl)ccc2o1 ; retrieve measured concentration at 1 h.
2210

* * *

- method_notes: Drug concentration in plasma 1 hr after final dose of 30 mg/kg administered orally
- Format: ADME, organism-based
- Parameters: dose 30 mg/kg, route oral
- measurement_parameters: mouse, po, read-out: Activity
result_type: concentration at 1 h (ng/mL)
One number for each entry, in ng/mL.

Param item = O=c1cc(NC2CCN(Cc3ccc4c(c3)OCO4)CC2)c2cc(Cl)ccc2o1 ; retrieve measured concentration at 1 h.
6010

* * *

- assayed_target: Voltage-gated inwardly rectifying potassium channel KCNH2 (Homo sapiens)
- Sequence (Q12809 whole entry): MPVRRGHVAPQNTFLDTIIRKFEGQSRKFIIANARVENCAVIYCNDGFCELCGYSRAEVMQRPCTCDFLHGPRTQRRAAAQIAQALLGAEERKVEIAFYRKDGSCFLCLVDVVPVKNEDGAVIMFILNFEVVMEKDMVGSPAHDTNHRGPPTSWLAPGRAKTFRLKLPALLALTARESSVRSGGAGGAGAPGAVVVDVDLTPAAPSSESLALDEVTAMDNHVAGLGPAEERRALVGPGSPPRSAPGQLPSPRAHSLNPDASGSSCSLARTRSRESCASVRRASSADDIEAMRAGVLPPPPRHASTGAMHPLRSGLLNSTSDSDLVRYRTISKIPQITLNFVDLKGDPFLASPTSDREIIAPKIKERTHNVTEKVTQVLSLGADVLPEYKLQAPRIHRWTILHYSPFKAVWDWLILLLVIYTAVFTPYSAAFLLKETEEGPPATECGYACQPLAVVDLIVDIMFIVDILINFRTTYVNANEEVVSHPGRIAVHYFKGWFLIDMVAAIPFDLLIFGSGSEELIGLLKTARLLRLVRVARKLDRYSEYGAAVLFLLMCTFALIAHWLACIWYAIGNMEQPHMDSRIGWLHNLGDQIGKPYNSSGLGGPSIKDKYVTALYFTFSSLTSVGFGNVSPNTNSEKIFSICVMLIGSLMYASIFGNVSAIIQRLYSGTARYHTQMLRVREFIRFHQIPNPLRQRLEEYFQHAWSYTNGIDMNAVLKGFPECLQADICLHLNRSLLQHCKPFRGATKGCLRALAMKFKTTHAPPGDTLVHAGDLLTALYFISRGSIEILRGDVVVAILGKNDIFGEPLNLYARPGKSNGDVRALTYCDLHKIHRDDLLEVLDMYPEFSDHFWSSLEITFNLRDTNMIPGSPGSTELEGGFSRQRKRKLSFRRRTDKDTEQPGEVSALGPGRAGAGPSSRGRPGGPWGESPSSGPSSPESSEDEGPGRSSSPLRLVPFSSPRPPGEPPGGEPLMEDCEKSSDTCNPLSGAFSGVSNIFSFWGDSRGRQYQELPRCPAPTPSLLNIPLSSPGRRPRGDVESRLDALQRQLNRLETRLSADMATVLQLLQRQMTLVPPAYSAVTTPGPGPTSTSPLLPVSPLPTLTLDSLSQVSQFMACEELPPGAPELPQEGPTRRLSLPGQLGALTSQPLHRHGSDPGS
result_type: IC50 (nM)
Give bare numbers, in nM.

Param item = O=c1cc(NC2CCN(Cc3ccc4c(c3)OCO4)CC2)c2cc(Cl)ccc2o1 ; retrieve measured IC50.
2250

* * *

- method_notes: Plasma area under concentration curve after peroral administration in lean mouse at a dose of 10 mg/kg
- Assay type: ADME, organism-based
- Parameters: dose 10 mg/kg, route oral
- measurement_parameters: po
result_type: AUC (ng·h/mL)
Numbers only, in ng·h/mL.

Param item = COc1ccc2oc(O)c/c(=N\C3CCN(C/C=C/c4ccccc4)CC3)c2c1 ; retrieve measured AUC.
980

* * *

- assayed_target: Melanin-concentrating hormone receptor 1 (Homo sapiens, UniProt Q99705)
- Sequence (Q99705 whole entry): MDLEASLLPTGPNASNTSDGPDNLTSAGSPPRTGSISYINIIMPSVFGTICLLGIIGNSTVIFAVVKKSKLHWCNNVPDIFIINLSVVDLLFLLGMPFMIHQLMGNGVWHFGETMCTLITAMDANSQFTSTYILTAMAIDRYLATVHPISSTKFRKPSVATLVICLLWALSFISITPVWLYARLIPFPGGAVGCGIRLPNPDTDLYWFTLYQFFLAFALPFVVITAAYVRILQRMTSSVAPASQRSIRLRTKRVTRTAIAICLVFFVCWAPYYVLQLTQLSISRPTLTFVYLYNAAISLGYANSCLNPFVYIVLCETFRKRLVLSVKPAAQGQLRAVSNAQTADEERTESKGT
- method_notes: Inhibition of melanin concentrating hormone receptor 1 mediated [Ca2+] release in IMR-32 cells in Ca+2 release cell assay
- Format: functional, cell-based
result_type: pIC50
Numbers only, as −log10 of the molar value.

The following molecules have reported results that may help.
{"smiles_record": "O=c1cc(NC2CCN(Cc3ccc4cc[nH]c4c3)CC2)c2cc(Cl)ccc2o1", "assayed_target": "Melanin-concentrating hormone receptor 1 (Homo sapiens, UniProt Q99705)", "result_type": "pIC50", "numeric_readout": 7.55}
{"smiles_record": "COc1ccc2oc(O)c/c(=N\\C3CCN(C/C=C/c4ccccc4)CC3)c2c1", "assayed_target": "Melanin-concentrating hormone receptor 1 (Homo sapiens, UniProt Q99705)", "result_type": "pIC50", "numeric_readout": 7.36}
{"smiles_record": "O=c1cc(NC2CCN(Cc3ccc4ncoc4c3)CC2)c2cc(Cl)ccc2o1", "assayed_target": "Melanin-concentrating hormone receptor 1 (Homo sapiens, UniProt Q99705)", "result_type": "pIC50", "numeric_readout": 6.34}
{"smiles_record": "O=c1cc(NC2CCN(Cc3ccc4sccc4c3)CC2)c2cc(Cl)ccc2o1", "assayed_target": "Melanin-concentrating hormone receptor 1 (Homo sapiens, UniProt Q99705)", "result_type": "pIC50", "numeric_readout": 6.72}
{"smiles_record": "O=c1cc(NC2CCN(Cc3ccc4c(c3)OC(F)(F)O4)CC2)c2cc(Cl)ccc2o1", "assayed_target": "Melanin-concentrating hormone receptor 1 (Homo sapiens, UniProt Q99705)", "result_type": "pIC50", "numeric_readout": 6.24}

Hey, can you go through the list below and give me pIC50 for every item?
1. O=c1cc(NC2CCN(Cc3ccc4c(c3)OCO4)CC2)c2cc(Cl)ccc2o1
2. Cn1ccc2ccc(CN3CCC(/N=c4\cc(O)oc5ccc(Cl)cc45)CC3)cc21
3. COc1ccc2oc(O)c/c(=N\C3CCN(Cc4ccc5c(c4)OCO5)CC3)c2c1
4. O=c1cc(NC2CCN(Cc3ccc4[nH]ccc4c3)CC2)c2cc(Cl)ccc2o1
5. O=c1cc(NC2CCN(C/C=C/c3ccccc3)CC2)c2ccccc2o1
6. O=c1cc(NC2CCN(Cc3ccc4ccccc4c3)CC2)c2cc(Cl)ccc2o1
7. O=c1cc(NC2CCN(Cc3ccc4ocnc4c3)CC2)c2cc(Cl)ccc2o1

1. 7.55
2. 6.79
3. 7.96
4. 7.20
5. 5.98
6. 7.04
7. 6.79

Hey, can you go through the list below and give me pIC50 for every item?
1. O=c1cc(NC2CCN(C/C=C/c3ccccc3)CC2)c2cc(Cl)ccc2o1
2. O=c1cc(NC2CCN(Cc3ccc4c(c3)CCO4)CC2)c2cc(Cl)ccc2o1

6.68
7.39
